# Tested on: A498 renal
# assay_comment: NCI tumour cell line growth inhibition, 48 h

# compound, TGI
measured = [
    ("O=[N+]([O-])c1ccc(C[P+](c2ccccc2)(c2ccccc2)c2ccccc2)cc1", "> 100 µM"),
    ("Cc1cc2c(cc1C)OC(=O)CC2", "> 100 µM"),
    ("O=C(Nc1ccc([As](=O)(O)O)cc1)Nc1cccc(Cl)c1Cl", "> 100 µM"),
    ("C=C(CCOC)CCC1CCCCC(=C)[C@H]1OC(C)=O (stereo partly specified)", "> 100 µM"),
    ("CSC(=Nc1nnc(-c2ccc([N+](=O)[O-])cc2)s1)SC", "64.6 µM"),
    ("CCc1cc2c(c3c1CCC3=O)CC1(Cc3ccc(C)cc3C1)C2 (stereo unspecified)", "> 100 µM"),
]
